assay: Cy5 fluorescence interference with SSB-bound oligo, artefact control for HCV NS3 helicase inhibitor project, biochemical, NIH Clinical Collection, E. coli SSB (AID 743268)

[
  {
    "compound": "COc1c2occc2cc2ccc(=O)oc12",
    "fluorescence ratio": 0.98
  },
  {
    "compound": "CN1C(=O)CC[C@H]1c1cccnc1",
    "fluorescence ratio": 1.01
  },
  {
    "compound": "Nc1ccn([C@@H]2O[C@H](CO)[C@@H](O)C2O)c(=O)n1 (stereo partly specified)",
    "fluorescence ratio": 1
  },
  {
    "compound": "CC[C@H](C)C(=O)O[C@H]1CCC=C2C=C[C@H](C)[C@H](CC[C@@H]3C[C@@H](O)CC(=O)O3)[C@H]21",
    "fluorescence ratio": 0.91
  },
  {
    "compound": "CCN1CCN(C(=O)N[C@@H](C(=O)N[C@@H]2C(=O)N3[C@@H]2SC(C)(C)[C@@H]3C(=O)O)c2ccccc2)C(=O)C1=O",
    "fluorescence ratio": 0.99
  },
  {
    "compound": "CCC(=O)OCC(=O)[C@@]1(OC(=O)CC)[C@@H](C)C[C@H]2[C@@H]3CCC4=CC(=O)C=C[C@]4(C)[C@@]3(Cl)[C@@H](O)C[C@@]21C",
    "fluorescence ratio": 1.01
  }
]
